Hello, the source for this data is patent US8519003B2, in case you need it.

Reported chromatographic logP values for a set of compounds
procedure-text: logP determination (acidic / HCOOH and neutral)
conditions-used: acidic, HCOOH (formic acid)

>>> reported_value("Cc1cc(Oc2ccccc2)c(C)cc1N")
1.92

Specify reported chromatographic logP for the compound shown: "CCN(C)C=Nc1cc(C)c(Oc2ccccc2)cc1C"
1.87
